Molecular target: Cytochrome P450 1A2 (Homo sapiens) (UniProt P05177)
Sequence (P05177 whole entry, looked up): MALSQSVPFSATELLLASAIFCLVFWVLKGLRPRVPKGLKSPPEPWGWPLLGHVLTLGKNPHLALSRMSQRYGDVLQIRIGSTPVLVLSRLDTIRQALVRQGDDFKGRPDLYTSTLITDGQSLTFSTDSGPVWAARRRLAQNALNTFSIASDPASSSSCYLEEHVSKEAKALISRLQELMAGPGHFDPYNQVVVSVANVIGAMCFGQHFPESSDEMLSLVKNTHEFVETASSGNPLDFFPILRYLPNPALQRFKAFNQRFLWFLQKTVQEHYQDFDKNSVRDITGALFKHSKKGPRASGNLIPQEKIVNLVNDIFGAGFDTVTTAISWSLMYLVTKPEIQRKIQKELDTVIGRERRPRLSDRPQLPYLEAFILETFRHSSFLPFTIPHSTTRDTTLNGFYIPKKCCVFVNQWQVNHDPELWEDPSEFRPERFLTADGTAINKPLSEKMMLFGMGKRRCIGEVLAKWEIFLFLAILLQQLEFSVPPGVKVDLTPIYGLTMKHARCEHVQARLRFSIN
Experiment: p450-cyp1a2 (AID 410)
Settings: recombinant CYP1A2, luciferin-ME demethylation, luminescence; series mostly up to 57 µM
Results filed as inconclusive are left out. The source made the active and inactive calls. Calls come from the whole dose curve.
Give your call using only these classes: active, inactive

See these solved cases before continuing.
1) Clc1ccccc1-c1nccc(NCCN2CCOCC2)n1    active
2) CN(C)C(=O)c1ccc(-c2cncnc2NCCN2CCOCC2)cc1    inactive
3) COc1cccc(Nc2ncc3ncc(=O)n(Cc4cccs4)c3n2)c1    active
4) CN1CCN(c2ccnc(-c3ccc(N(C)C)cc3)n2)CC1    active
5) CCNc1ncc2nc(-c3ccc(F)cc3)c(=O)n(CCC#N)c2n1    active
6) N#CCCn1c(=O)c(-c2ccccc2)nc2cnc(N3CCOCC3)nc21    active
7) CNc1ncncc1-c1ccccc1C(F)(F)F    inactive
8) CC(=O)NCCNc1ncnc2ccc(-c3ccccc3C)cc12    active
9) Cc1ccccc1-c1nc(N(C)C)c2ccccc2n1    active
10) O=c1c(-c2cccc(Cl)c2)nc2cncnc2n1Cc1ccccc1    active

In this assay, the call recorded for O=C(c1cnccn1)N1CCC2(CCCN(c3ccccn3)C2)CC1 was what?
inactive

In this assay, the call recorded for O=C(c1cnccn1)N1CCC2(CCCN(c3ccc(-c4ccccc4)cc3)C2)CC1 was what?
active

In this assay, the call recorded for N#CCCn1c(=O)c(-c2ccc(F)cc2)nc2cnc(OCc3ccccc3)nc21 was what?
active

In this assay, the call recorded for CCNc1ncc2nc(-c3cccs3)c(=O)n(Cc3ccc(F)cc3)c2n1 was what?
active

In this assay, the call recorded for CCN1CCC[C@@H]1CNC(=O)c1cc(S(N)(=O)=O)ccc1OC was what?
inactive

In this assay, the call recorded for CC(=O)N1CCC2(CCCN(Cc3ccccc3)C2)CC1 was what?
inactive

In this assay, the call recorded for COCC(=O)N1CCC2(CC1)CCN(c1cccc(-c3ccccc3)c1)CC2 was what?
active

In this assay, the call recorded for COc1ccc(C(=O)N2CCC3(CCCN(C(=O)Nc4cccc(C#N)c4)C3)CC2)cc1 was what?
active

In this assay, the call recorded for CN(C)c1ncc2nc(-c3cc(F)cc(F)c3)c(=O)n(Cc3ccc(F)cc3)c2n1 was what?
inactive

In this assay, the call recorded for CC(=O)Oc1ccccc1C(=O)Oc1ccccc1C(=O)O was what?
active

---

Molecular target: Cytochrome P450 1A2 (Homo sapiens) (UniProt P05177)
Test: p450-cyp1a2 (AID 410)
Conditions: recombinant CYP1A2, luciferin-ME demethylation, luminescence; series mostly up to 57 µM
Records with an inconclusive call do not appear. Active and inactive are the calls of the source. Calls follow the shape of the full dose curve.
Give your call using only these classes: YES = active, NO = inactive

1. c1ccc2c(NC3CC3)nc(-c3ccoc3)nc2c1    YES
2. N#Cc1cccc(-c2nccc(NCc3ccccc3)n2)c1    YES
3. C[n+]1ccccc1/C=N\O    NO
4. COc1ccc(Oc2ncc3nc(-c4cccs4)c(=O)n(Cc4cccc(OC)c4)c3n2)cc1    NO
5. COc1cccc(-c2nccc(NCc3ccc(OC)cc3OC)n2)c1    YES
6. C[C@@](N)(Cc1ccc(O)c(O)c1)C(=O)O    NO
7. COCCn1c(=O)c(CCc2ccccc2)nc2cnc(Oc3ccc(OC)cc3)nc21    YES
8. Cc1noc(C)c1-c1ccc2ncnc(NCc3ccccc3)c2c1    YES

In this assay, the call recorded for c1csc(CNc2nc(-c3ccoc3)nc3ccccc23)c1 was what?
YES

In this assay, the call recorded for CNc1ncncc1-c1ccccc1C was what?
YES

In this assay, the call recorded for N#Cc1ccc(CN2CCCC3(CCN(S(=O)(=O)c4ccccc4)CC3)C2)cc1 was what?
NO

In this assay, the call recorded for CNc1nc(-c2ccccc2C(F)(F)F)nc2ccccc12 was what?
YES

In this assay, the call recorded for Cc1noc(C)c1-c1ccc2ncnc(NCCN3CCOCC3)c2c1 was what?
YES

In this assay, the call recorded for Cc1cnc(CNc2ccnc(-c3cccc(NS(C)(=O)=O)c3)n2)cn1 was what?
YES

In this assay, the call recorded for COc1ccc(-n2c(=O)c(-c3cccs3)nc3cnc(Nc4cccc(OC)c4)nc32)cc1 was what?
NO
